biological target: Tyrosine-protein kinase ABL1 (Homo sapiens, UniProt P00519)
Sequence (P00519 whole entry): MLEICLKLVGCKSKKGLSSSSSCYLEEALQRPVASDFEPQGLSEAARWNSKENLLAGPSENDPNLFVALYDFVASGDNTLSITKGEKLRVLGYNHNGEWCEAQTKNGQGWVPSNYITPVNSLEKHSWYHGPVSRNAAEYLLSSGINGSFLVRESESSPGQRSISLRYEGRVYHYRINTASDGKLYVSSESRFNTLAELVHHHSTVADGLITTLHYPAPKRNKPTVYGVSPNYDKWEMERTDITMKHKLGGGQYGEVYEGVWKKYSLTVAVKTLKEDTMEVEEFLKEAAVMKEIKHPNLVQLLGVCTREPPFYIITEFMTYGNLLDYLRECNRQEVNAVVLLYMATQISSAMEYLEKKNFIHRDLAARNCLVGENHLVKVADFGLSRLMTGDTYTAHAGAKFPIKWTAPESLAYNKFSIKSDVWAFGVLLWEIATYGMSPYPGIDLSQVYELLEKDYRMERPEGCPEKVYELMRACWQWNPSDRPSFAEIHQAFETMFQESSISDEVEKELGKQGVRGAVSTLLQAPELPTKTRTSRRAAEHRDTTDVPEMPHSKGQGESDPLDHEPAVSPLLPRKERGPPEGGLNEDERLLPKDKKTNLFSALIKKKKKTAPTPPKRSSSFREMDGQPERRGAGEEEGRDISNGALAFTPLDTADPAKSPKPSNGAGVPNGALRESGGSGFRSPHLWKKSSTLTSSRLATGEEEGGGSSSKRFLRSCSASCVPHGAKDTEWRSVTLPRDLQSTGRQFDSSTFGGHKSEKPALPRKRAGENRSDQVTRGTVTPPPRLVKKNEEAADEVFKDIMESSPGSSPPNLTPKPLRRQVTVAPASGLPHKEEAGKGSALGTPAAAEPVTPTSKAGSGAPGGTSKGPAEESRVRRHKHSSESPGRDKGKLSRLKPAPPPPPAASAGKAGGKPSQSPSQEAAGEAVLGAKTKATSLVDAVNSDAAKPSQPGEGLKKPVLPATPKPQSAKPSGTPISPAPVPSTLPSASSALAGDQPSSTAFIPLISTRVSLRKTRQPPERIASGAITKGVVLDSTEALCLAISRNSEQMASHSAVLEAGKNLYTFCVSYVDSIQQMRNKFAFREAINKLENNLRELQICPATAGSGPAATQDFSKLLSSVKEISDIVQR
pIC50: −log10 of the molar value.
Think of 9 as a floor: if pIC50 stands on it or above, it is Fulfilled; beneath it, Not fulfilled.

Input: Does pIC50 meet or surpass 9 for `Cc1cccc(C)c1/C=C/n1cnc2c(Nc3ccc(P(C)(C)=O)cc3)nc(CCC#N)nc21` ?
Output: Fulfilled

Input: Is it the case that `Cc1cccc(C)c1/C=C/n1cnc2c(Nc3ccc(P(C)(C)=O)cc3)nc(Oc3cccnc3)nc21` has pIC50 reaching or exceeding 9?
Output: Fulfilled

Input: Determine whether this compound has pIC50 no lower than 9: `Cc1cccc(C)c1/C=C/n1cnc2c(Nc3ccc(P(C)(C)=O)cc3)nc(N3CCOCC3)nc21`
Output: Not fulfilled

Input: Does the compound `Cc1cccc(C)c1/C=C/n1cnc2c(Nc3ccc(P(C)(C)=O)cc3)nc(C3CCN(C)CC3)nc21` have recorded pIC50 that is 9 or more?
Output: Fulfilled

Input: Please tell me: is the compound `Cc1cccc(C)c1/C=C/n1cnc2c(Nc3ccc(P(C)(C)=O)cc3)ncnc21` at or over 9 in terms of pIC50?
Output: Not fulfilled
